Target: human GRP receptor (human, UniProt P30550 1-384)
Sequence (P30550 whole entry): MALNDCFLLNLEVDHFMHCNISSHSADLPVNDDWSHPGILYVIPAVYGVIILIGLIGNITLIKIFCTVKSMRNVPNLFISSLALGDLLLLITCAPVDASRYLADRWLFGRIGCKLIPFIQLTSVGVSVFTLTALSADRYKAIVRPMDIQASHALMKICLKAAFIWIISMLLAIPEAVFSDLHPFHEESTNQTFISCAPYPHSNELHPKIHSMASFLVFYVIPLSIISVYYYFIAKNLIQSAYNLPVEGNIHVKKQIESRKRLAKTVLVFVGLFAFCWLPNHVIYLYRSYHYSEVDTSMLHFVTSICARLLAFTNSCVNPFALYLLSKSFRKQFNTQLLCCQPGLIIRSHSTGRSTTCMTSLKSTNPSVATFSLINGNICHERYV
Experiment: cell-based or functional assay
Starred links: 1 amine or outer side, 2 acyl side, 3 side chain; linkers in the order of their positions; H or OH if unused. Non-standard residues stand in square brackets, D forms with d. *: point of attachment. C20 diacid = O=C(O)CCCCCCCCCCCCCCCCCCC(=O)*; γGlu = O=C(O)[C@H](CCC(=O)[*:2])N[*:1]; NMeH = CN[C@@H](Cc1c[nH]cn1)C(=O)O; Nle = CCCC[C@H](N)C(=O)O; AEEA = NCCOCCOCC(=O)O; βAla = NCCC(=O)O
parameter_measured: hIP1 GRPR EC50
Provide a numeric answer, followed by its unit.

Could you share which hIP1 GRPR EC50 value was measured for {C20 diacid}-[γGlu][AEEA][AEEA]GQHWAV[βAla][NMeH]L[Nle]-NH2 (SMILES CCCC[C@H](NC(=O)[C@H](CC(C)C)NC(=O)[C@H](Cc1c[nH]cn1)N(C)C(=O)CCNC(=O)[C@@H](NC(=O)[C@H](C)NC(=O)[C@H](Cc1c[nH]c2ccccc12)NC(=O)[C@H](Cc1c[nH]cn1)NC(=O)[C@H](CCC(N)=O)NC(=O)CNC(=O)COCCOCCNC(=O)COCCOCCNC(=O)CC[C@H](NC(=O)CCCCCCCCCCCCCCCCCCC(=O)O)C(=O)O)C(C)C)C(N)=O) [Peptide 267] ?
7.4 nM
